biological target: human sphingosine-1-phosphate receptor 2 (S1P2) (Homo sapiens (Human), UniProt O95136); test: Inositol monophosphate production (IP-one TB kit), S1P2 CHO-K1 cells; format: cell-based; conditions: inositol monophosphate accumulation, hS1P2
Sequence (O95136 whole entry): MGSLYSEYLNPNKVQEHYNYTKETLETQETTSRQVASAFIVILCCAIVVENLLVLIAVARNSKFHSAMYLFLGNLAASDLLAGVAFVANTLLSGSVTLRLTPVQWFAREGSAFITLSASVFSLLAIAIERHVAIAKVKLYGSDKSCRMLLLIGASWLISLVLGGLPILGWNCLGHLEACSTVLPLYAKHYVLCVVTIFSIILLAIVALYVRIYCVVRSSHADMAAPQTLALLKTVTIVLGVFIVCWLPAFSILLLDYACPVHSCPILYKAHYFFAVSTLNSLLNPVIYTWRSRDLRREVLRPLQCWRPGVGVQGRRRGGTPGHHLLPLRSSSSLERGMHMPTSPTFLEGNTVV
hS1P2 IP-one pEC50 overview

Guide cases for hS1P2 IP-one pEC50, answers given:
>>> df
                                smiles_data  measured_result
0  N#Cc1cc(-c2nc(-c3ccc4oc(=O)[nH]c4c3)no2)ccc1NCC1CC1             >5.0
1  C=CCNc1ccc(-c2nc(-c3ccc4sc(N)nc4c3)no2)cc1C#N             <5.0
2  COc1cnccc1-c1nc(-c2ccc3c(ccn3C(C)C)c2)no1             >5.0
3  COc1ccccc1-c1nnc(-c2ccc3c(c2)oc(=O)n3C)o1             <5.0
4  CCC1(CC)CC(=O)c2cc(-c3nc(-c4cccnc4OC)no3)ccc2O1             <5.0
5  CC(C)Nc1ccc(-c2nc(-c3ccc4oc(=O)[nH]c4c3)no2)cc1C#N             >5.0
6  CC(C)n1nnc2cc(-c3nc(-c4ccncc4C(F)(F)F)no3)ccc21             <5.0

query: Query hS1P2 IP-one pEC50 on human sphingosine-1-phosphate receptor 2 (S1P2) (Homo sapiens (Human), UniProt O95136) for CCC1(CC)CC(=O)c2cc(-c3nc(-c4ccc(C(=O)NC)cc4)no3)ccc2O1
result: <5.0

----------
target: human sphingosine-1-phosphate receptor 1 (S1P1) (Homo sapiens (Human)); test: β-Arrestin2 recruitment assay (PathHunter), S1P1 CHO-K1 cells; assay type: cell-based; details: β-arrestin2 recruitment, S1P1 CHO-K1 cells
Sequence (P21453 whole entry, looked up): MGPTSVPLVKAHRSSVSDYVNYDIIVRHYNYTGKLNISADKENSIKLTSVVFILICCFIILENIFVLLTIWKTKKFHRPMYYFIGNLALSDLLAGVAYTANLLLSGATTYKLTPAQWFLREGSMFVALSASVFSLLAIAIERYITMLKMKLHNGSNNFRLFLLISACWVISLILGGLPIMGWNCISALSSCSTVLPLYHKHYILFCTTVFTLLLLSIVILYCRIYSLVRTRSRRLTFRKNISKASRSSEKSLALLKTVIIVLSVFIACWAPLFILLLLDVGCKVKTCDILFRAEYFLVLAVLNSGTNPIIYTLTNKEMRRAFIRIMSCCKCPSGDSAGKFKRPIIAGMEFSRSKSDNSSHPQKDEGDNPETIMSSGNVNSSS
Sequence (P32121 whole entry partner, looked up): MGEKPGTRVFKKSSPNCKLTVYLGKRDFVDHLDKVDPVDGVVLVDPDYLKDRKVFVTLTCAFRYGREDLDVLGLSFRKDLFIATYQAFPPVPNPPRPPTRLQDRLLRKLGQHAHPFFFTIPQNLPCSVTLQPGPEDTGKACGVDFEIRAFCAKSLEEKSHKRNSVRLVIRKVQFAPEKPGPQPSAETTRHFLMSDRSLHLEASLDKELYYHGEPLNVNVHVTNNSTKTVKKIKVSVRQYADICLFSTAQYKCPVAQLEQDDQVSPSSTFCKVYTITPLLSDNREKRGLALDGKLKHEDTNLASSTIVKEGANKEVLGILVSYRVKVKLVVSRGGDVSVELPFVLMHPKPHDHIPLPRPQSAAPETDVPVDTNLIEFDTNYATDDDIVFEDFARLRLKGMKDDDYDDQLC
property_name: hS1P1 B-arrestin2 pEC50

>>> print(df.to_string())
                                smiles_data                               test_target            property_name  measured_result
0  CC(C)n1nnc2cc(-c3nc(-c4ccc(OCc5ccccc5)c(C(F)(F)F)c4)no3)ccc21  human sphingosine-1-phosphate receptor 1 (S1P1) (Homo sapiens (Human))  hS1P1 B-arrestin2 pEC50               <5
1  COc1ccccc1-c1nc(-c2ccc3c(ccn3C(C)C)c2)no1  human sphingosine-1-phosphate receptor 1 (S1P1) (Homo sapiens (Human))  hS1P1 B-arrestin2 pEC50               >5
2  N#Cc1cc(-c2nnc(-c3ccc4c(c3)ncn4CCO)o2)ccc1NCC(F)F  human sphingosine-1-phosphate receptor 1 (S1P1) (Homo sapiens (Human))  hS1P1 B-arrestin2 pEC50               <5
3  Cc1ccccc1-c1noc(-c2ccc3c(c2)CCC(=O)N3)n1  human sphingosine-1-phosphate receptor 1 (S1P1) (Homo sapiens (Human))  hS1P1 B-arrestin2 pEC50               >5
4  N#Cc1cc(-c2nnc(-c3ccc4[nH]cnc4c3)o2)ccc1NCCF  human sphingosine-1-phosphate receptor 1 (S1P1) (Homo sapiens (Human))  hS1P1 B-arrestin2 pEC50               >5

query: What does the record list as hS1P1 B-arrestin2 pEC50 for CCC1(CC)CC(=O)c2cc(-c3nc(-c4ccncc4C(F)(F)F)no3)ccc2O1 ?
result: <5

query: Please answer likewise for CC(C)Nc1ccc(-c2nc(-c3ccc4c(c3)CC(=O)N4)no2)cc1C#N
result: >5

query: Please answer likewise for CC(C)Nc1ccc(-c2nc(-c3ccc4c(c3)NC(=O)C4)no2)cc1C#N
result: >5
